Test system: HOP-92 NSCLC
Protocol Summary: NCI-60 one-dose screen, 48 h
Measurement Conditions: 10 µM unless noted
This is part of a sample that, as a whole, favours compounds with a hit. Of some 83,000 tested, about 20% had one in any assay. Active and inactive are the calls of the source. Rule for the calls: active = growth percent below 10; inactive = the rest.
Classes used: active, inactive

INSERT INTO assay_data (molecule, category_label) VALUES
  ('Cc1cccc(NC(=O)[C@@H]2c3ccccc3C(=O)N(c3ccc(Cl)cc3)[C@H]2c2ccc(Cl)cc2)n1', 'inactive'),
  ('c1cn2cc(-c3ccc4cn[nH]c4c3)nc(Nc3ccc(N4CCOCC4)cc3)c2n1', 'inactive'),
  ('COc1ccc(C2CC(=O)c3c(O)c(OC)c(OC)c(OC)c3O2)c(O)c1 (centres undefined)', 'inactive'),
  ('CC(C)Nc1cc(-c2c[nH]c(C(=O)N[C@H](CO)c3cccc(Cl)c3)c2)c(Cl)cn1', 'active'),
  ('COc1ccc(-c2cc3c(C)nc(N)nc3n(C3CCC(OCCO)CC3)c2=O)cn1 (centres undefined)', 'active'),
  ('C[C@H](NC(=O)c1c(N)nn2cccnc12)c1cc2cccc(C#Cc3cnn(C)c3)c2c(=O)n1-c1ccccc1', 'active'),
  ('CC(C)[C@@H]1CC[C@@H]2[C@@H]1[C@H](OC(=O)/C=C/c1ccccc1)[C@]1(C(C)C)C[C@@H](OC(=O)CO)[C@@]2(C)O1', 'inactive'),
  ('FC(F)c1nc2ccccc2n1-c1nc(N2CCOCC2)nc(N2CCOCC2)n1', 'active'),
  ('CN(C)CCOC(=O)Nc1nc2ccc(Sc3ccccc3)cc2[nH]1', 'inactive'),
  ('N[C@@H]1CCCN(c2c(/C=C3\SC(=O)NC3=O)cccc2-c2ccccc2)C1', 'inactive'),
  ('COc1cnc2c(c1)C(=O)c1c-2n(CCCN2CCC(N)CC2)c(=O)c2cc([N+](=O)[O-])ccc12', 'inactive'),
  ('CCN1/C(=C/C=C/c2n(-c3ccccc3)c3ccc(-c4nc5ccccc5s4)cc3[n+]2CC)N(c2ccccc2)c2ccc(-c3nc4ccccc4s3)cc21', 'active'),
  ('CCN(CC)c1cc2oc3cc(N)cc(=N)c-3nc2cc1C', 'inactive'),
  ('CCCCCC(=O)OCc1ccc(Cl)c(Cl)c1', 'inactive'),
  ('Clc1ccc(Nc2nccc(Nc3ccc4[nH]ncc4c3)n2)cc1', 'active'),
  ('COc1cc2cc(NCc3ccc(Cl)cc3)nc(C)c2cc1OC', 'inactive'),
  ('CNC(=O)c1ccc(Nc2ncc(C(F)(F)F)c(NCc3nccnc3N(C)S(C)(=O)=O)n2)cc1', 'active'),
  ('CC[n+]1c(/C=C/C=C2\N(C)c3ccccc3C2(C)C)sc2ccccc21', 'active'),
  ('COCCN1CCN(Cc2ccc(-c3n[nH]c4c3C(=O)c3c(NC(=O)NN5CCOCC5)cccc3-4)cc2)CC1', 'inactive');
